Please respond with reported pIC50 for every item in the list.
Target: human Npt2a (Homo sapiens)
Construct: expressed in transfected cells
Sequence (Q06495 1-639): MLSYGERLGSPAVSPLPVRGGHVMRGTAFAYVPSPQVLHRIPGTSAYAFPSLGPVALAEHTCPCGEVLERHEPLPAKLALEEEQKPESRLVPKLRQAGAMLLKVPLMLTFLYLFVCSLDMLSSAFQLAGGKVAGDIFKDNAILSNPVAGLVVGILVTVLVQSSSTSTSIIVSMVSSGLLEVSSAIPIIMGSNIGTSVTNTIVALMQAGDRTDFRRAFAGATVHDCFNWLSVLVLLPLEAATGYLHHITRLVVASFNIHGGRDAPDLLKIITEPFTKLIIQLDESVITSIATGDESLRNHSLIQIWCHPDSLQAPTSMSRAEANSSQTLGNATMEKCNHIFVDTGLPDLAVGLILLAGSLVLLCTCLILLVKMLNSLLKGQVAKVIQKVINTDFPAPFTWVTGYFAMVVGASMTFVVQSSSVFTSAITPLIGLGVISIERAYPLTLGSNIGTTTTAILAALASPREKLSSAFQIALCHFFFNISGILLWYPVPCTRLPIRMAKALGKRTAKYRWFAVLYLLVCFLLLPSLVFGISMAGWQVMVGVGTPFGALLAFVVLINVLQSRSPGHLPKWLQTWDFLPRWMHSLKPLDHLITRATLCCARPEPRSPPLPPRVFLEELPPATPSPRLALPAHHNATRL
Experiment: Npt2a activity cell based assay, membrane potential dye, CHO T-REx hNpt2a cells
Conditions: doxycycline-induced, depolarization by sodium phosphate influx, average or median values if tested more than once
Lab note — pIC50 values are minus log10 of concentrations in M.

Ask | Answer with the recorded pIC50 of `Cc1cc(C)n(-c2cc(Nc3c(C)c(-c4ccc(Br)cc4)nn3C)ncn2)n1` only.
Reply | 6.85

Ask | // Input: `CCc1c(-c2ccc(F)cc2)nn(C)c1Nc1cc(-n2nc(C)c3cnccc32)ncn1` . Output its pIC50 only.
Reply | 6.08

Ask | // Input: `Cc1cc(C(F)F)n(-c2cc(Nc3c(C)c(-c4ccc(C(F)(F)F)nc4)nn3C)ncn2)n1` . Output its pIC50 only.
Reply | 6.10

Ask | For `Cc1cc(C)n(-c2cc(Nc3nn(CC(F)F)c(-c4ccc(C#N)cc4)c3C)ncn2)n1` , write its pIC50.
Reply | 7.32

Ask | Identify the reported pIC50 for the following entry. `Cc1nn(-c2cc(Nc3nn(C)c(-c4ccc(OC(F)(F)F)cc4)c3C)ncn2)c(C)c1Cl`
Reply | 7.72

Ask | Input `CCc1c(Nc2cc(-n3nc(C)c(Br)c3C)ncn2)nn(C)c1-c1ccc(F)cc1` , output reported pIC50.
Reply | 8.52

Ask | Look up and state reported pIC50 for `Cc1cc(C(F)F)n(-c2cc(Nc3c(C)c(-c4ccc(F)cc4)nn3C)ncn2)n1`
Reply | 7.44

Ask | For `CCc1c(Nc2cc(-n3nc(C)cc3C)ncn2)n[nH]c1-c1ccc(Cl)cc1` , write its pIC50.
Reply | 6.85

----------
Answer each item with its documented IC50.
target: human Npt2a (Homo sapiens); assay: Npt2a activity cell based assay, membrane potential dye, CHO T-REx hNpt2a cells; settings: doxycycline-induced, depolarization by sodium phosphate influx, average or median values if tested more than once
Field format: number, assumed nM, no unit text.

Ask | Given `Cc1nn(-c2cc(Nc3c(C)c(-c4ccc(C(F)F)nc4)nn3CC3CC3)ncn2)c(C)c1Cl` , report its IC50 on human Npt2a (Homo sapiens).
Reply | 120

Ask | State, for human Npt2a (Homo sapiens), measured IC50 of the compound listed here: `CCc1c(Nc2cc(-n3nc(C)c4c3CCCC4=O)ncn2)nn(C)c1-c1ccc(F)cc1`
Reply | 57

Ask | Enter measured IC50, system human Npt2a (Homo sapiens), for the compound shown: `CCc1c(Nc2cc(-n3nc(C)c(Cl)c3C)ncn2)n[nH]c1-c1ccc(F)cc1`
Reply | 27.5

Ask | Provide IC50, system human Npt2a (Homo sapiens), entry `Cc1nn(-c2cc(Nc3c(C)c(-c4ccc(F)cn4)nn3CC3CC3)ncn2)c(C)c1Cl`
Reply | 39

Ask | Consider the compound `CCOC(=O)Cc1c(C)nn(-c2cc(Nc3nn(C)c(-c4ccc(C#N)cc4)c3OC)ncn2)c1C` tested on human Npt2a (Homo sapiens); state its IC50.
Reply | 13

Ask | System human Npt2a (Homo sapiens). Read-out IC50. Item `Cc1nn(-c2cc(Nc3c(C)c(-c4ccc(C(F)F)nc4)nn3C)ncn2)c(C)c1Cl` . Report value.
Reply | 234

Ask | Tell me IC50 of Cc1nn(-c2cc(Nc3c(C)c(-c4ccc(F)cc4)nn3CC3CC3)ncn2)c(C)c1C(O)C1CC1 (single isomer, unassigned) [Example 419] when tested on human Npt2a (Homo sapiens).
Reply | 14

Ask | Given `CCc1c(Nc2cc(-n3nc(C)c(C(=O)OC(C)(C)C)c3C(F)F)ncn2)nn(C)c1-c1ccc(F)cc1` , report its IC50 on human Npt2a (Homo sapiens).
Reply | 9

Ask | Enter measured IC50, system human Npt2a (Homo sapiens), for the compound shown: `Cc1cc(C)n(-c2cc(Nc3c(C)c(-c4ccc(C#N)cc4)nn3C)ncn2)n1`
Reply | 28

Ask | Enter recorded IC50 with human Npt2a (Homo sapiens) for Cc1c(-c2ccc(F)cc2)nn(CC2CC2)c1Nc1cc(-n2nc3c(c2C)C(C)(O)CC3)ncn1 (single isomer, unassigned) [Example 515] here.
Reply | 110

Ask | Report IC50 from human Npt2a (Homo sapiens) testing of `Cc1nn(-c2cc(Nc3n[nH]c(-c4ccccc4)c3Cl)ncn2)c(C)c1Cl`
Reply | 90.3

Ask | Param request: IC50 | system human Npt2a (Homo sapiens) | item `Cc1c(-c2ccc(C#N)cc2)nn(CC2CC2)c1Nc1cc(-n2nc(C)c3ncccc32)ncn1`
Reply | 6

Ask | Jot down IC50 (human Npt2a (Homo sapiens)) of `Cc1cc(C)n(-c2cc(Nc3c(C)nn(-c4ccc(F)cc4)c3C)ncn2)n1` .
Reply | 247

Ask | State IC50 on human Npt2a (Homo sapiens). Entry: Cc1cc(C)n(-c2cc(Nc3c(C)c(-c4ccc(F)cc4)nn3CC(O)C3CC3)ncn2)n1 (single isomer, unassigned) [Example 370]
Reply | 2400

Ask | Lab note: human Npt2a (Homo sapiens) assay, enter IC50 for `CCc1c(-c2ccc(F)cc2)nn(CC2CC2)c1Nc1cc(-n2nc(C)c(Cl)c2C(F)F)ncn1` here
Reply | 80

----------
So I've got a bunch of molecules here, and I need their IC50 values.
Molecular target: human Npt2a (Homo sapiens)
Sequence (Q06495 1-639): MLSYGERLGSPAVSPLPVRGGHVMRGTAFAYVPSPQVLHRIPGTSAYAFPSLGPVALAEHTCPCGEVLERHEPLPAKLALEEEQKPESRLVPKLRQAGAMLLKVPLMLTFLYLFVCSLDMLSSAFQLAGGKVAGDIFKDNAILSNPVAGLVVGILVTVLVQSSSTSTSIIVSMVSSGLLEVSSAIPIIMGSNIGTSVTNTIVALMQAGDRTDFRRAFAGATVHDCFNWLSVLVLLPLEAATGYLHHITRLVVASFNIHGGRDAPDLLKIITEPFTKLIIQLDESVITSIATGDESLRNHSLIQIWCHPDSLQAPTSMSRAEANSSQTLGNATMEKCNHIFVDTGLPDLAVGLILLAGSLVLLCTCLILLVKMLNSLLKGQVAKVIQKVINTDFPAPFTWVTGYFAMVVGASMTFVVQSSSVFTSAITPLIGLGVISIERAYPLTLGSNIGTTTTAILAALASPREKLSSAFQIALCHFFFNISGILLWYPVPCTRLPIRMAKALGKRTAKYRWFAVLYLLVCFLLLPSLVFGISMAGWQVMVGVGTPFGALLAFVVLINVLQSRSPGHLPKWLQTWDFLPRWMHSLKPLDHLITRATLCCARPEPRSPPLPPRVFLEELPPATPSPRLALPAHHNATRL
Assay: Npt2a activity cell based assay, membrane potential dye, CHO T-REx hNpt2a cells
Settings: doxycycline-induced, depolarization by sodium phosphate influx, average or median values if tested more than once
Your answer should be a plain number; it is taken to be in nM.

Ask | Indicate the recorded IC50 value for this molecule: COc1c(-c2ccc(C#N)cc2)nn(CC2CC2)c1Nc1cc(-n2nc(C)cc2C)ncn1 [Example 316]
Reply | 81

Ask | Please indicate IC50 recorded for COC(C)c1c(C)nn(-c2cc(Nc3c(C)c(-c4ccc(C#N)cc4)nn3C)ncn2)c1C (single isomer, unassigned) [Example 340]
Reply | 12

Ask | Answer with the recorded IC50 of Cc1nn(-c2cc(Nc3c(C)c(-c4ccc(F)cc4)nn3CC3CC3)ncn2)c(C)c1C1(O)CC1 [Example 244] only.
Reply | 8

Ask | Please give the documented IC50 of CCc1c(Nc2cc(-n3nc4c(c3C)CCCC4)ncn2)nn(C)c1-c1ccc(F)cc1 [Example 46]
Reply | 6.5

Ask | Return reported IC50. Input molecule: COCCn1nc(-c2ccc(F)cn2)c(C)c1Nc1cc(-n2nc(C)cc2C)ncn1 [Example 542]
Reply | 28

Ask | Using known records, supply IC50 for CCOC(=O)Cc1c(C)nn(-c2cc(Nc3nn(C)c(-c4ccc(F)cc4)c3CC)ncn2)c1C [Example 87]
Reply | 32

Ask | Annotate the molecule CCOC(=O)c1c(C)nn(-c2cc(Nc3nn(C)c(-c4ccccc4)c3Cl)ncn2)c1C [Example 81] with its measured IC50.
Reply | 11

Ask | Answer with reported IC50 of Cc1nn(-c2cc(Nc3c(C)c(-c4ccc(OC(F)(F)F)cc4)nn3CC3CC3)ncn2)c(C(C)(C)O)c1Cl [Example 290]
Reply | 170

Ask | Input Cc1nn(-c2cc(Nc3c(Cl)c(-c4ccc(F)cc4)nn3CC3CC3)ncn2)c2cnccc12 [Example 218] , output reported IC50.
Reply | 32

Ask | Quote IC50 reported for Cc1nn(-c2cc(Nc3c(C)c(-c4ccc(C#N)cc4)nn3C)ncn2)c(C)c1C(F)(F)F [Example 547] please.
Reply | 29

Ask | Respond only with IC50 recorded for Cc1nn(-c2cc(Nc3c(C4CC4)c(-c4ccc(F)cc4)nn3C)ncn2)c(C)c1Cl [Example 45]
Reply | 29

Ask | Kindly indicate its recorded IC50. Item: COC(=O)Oc1c(C)nn(-c2cc(Nc3c(C)c(-c4ccc(F)cc4)nn3CC3CC3)ncn2)c1C [Example 518]
Reply | 14

Ask | Complete the entry with IC50 for Cc1c(-c2ccc(F)cc2)nn(CC2CC2)c1Nc1cc(-n2nc3c(c2C)C(O)(C(F)(F)F)CC3)ncn1 (racemic) [Example 403]
Reply | 12

Ask | State its IC50: Cc1nn(-c2cc(Nc3c(C)c(-c4ccc(F)cc4)nn3CC3CC3)ncn2)c(C)c1CN1CC(F)C1 [Example 452]
Reply | 16

Ask | Specify IC50 for Cc1c(-c2ccc(F)cc2)nn(CC2CC2)c1Nc1cc(-n2[nH]c3c(c2=O)CCCC3)ncn1 [Example 416] and stop.
Reply | 1150

Ask | Specify reported IC50 for the molecule shown: Cc1nn(-c2cc(Nc3c(C)c(-c4ccc(F)cc4)nn3CC3CC3)ncn2)c(C)c1C(=O)N(C)C [Example 402]
Reply | 55

Ask | Tell me its IC50 given Cc1nn(-c2cc(Nc3nn(CCC4CC4)c(-c4ccc(C#N)cc4)c3C)ncn2)c(C(F)F)c1Cl [Example 239] as the entry.
Reply | 290

Ask | Answer with the recorded IC50 for the molecule listed here: Cc1nn(-c2cc(Nc3c(C)c(-c4ccc(F)cc4)nn3CC3CC3)ncn2)c(C)c1[N+](=O)[O-] [Example 466]
Reply | 11

Ask | Report IC50 for Cc1nn(-c2cc(Nc3c(C)c(-c4ccncc4)nn3CC3CC3)ncn2)c(C)c1Cl [Example 351]
Reply | 65

Ask | Assign IC50 to the following record: CCc1nn(C)c(Nc2cc(-n3nc(C)cc3C)ncn2)c1-c1ccc(F)cc1 [Example 35]
Reply | 1400

Ask | // Input: COc1c(C)nn(-c2cc(Nc3c(C)c(-c4ccc(C#N)cc4)nn3C)ncn2)c1C [Example 436] . Output its IC50 only.
Reply | 10

Ask | Please give measured IC50 of the following entry: CCc1c(-c2ccc(F)cc2)nn(C)c1Nc1cc(-n2nc(C)c(Br)c2C)ncn1 [Example 265]
Reply | 180

Ask | Fill in IC50 for record Cc1cc(C)n(-c2cc(Nc3[nH]nc(-c4ccc(F)cc4)c3CC(F)(F)F)ncn2)n1 [Example 36]
Reply | 1700

Ask | Quote IC50 reported for Cc1nn(-c2cc(Nc3n[nH]c(-c4ccc(F)cc4)c3C)ncn2)c(C)c1Cl [Example 72] please.
Reply | 15.4

Ask | Specify measured IC50 for CCc1c(Nc2cc(-n3nc(CO)cc3C)ncn2)nn(C)c1-c1ccc(F)cc1 [Example 94] .
Reply | 2500

Ask | Specify IC50 for CCc1c(Nc2cc(-n3nc(C)c(C(=O)N4CCCC4C)c3C)ncn2)nn(C)c1-c1ccc(F)cc1 (single isomer, unassigned) [Example 106] and stop.
Reply | 120

Ask | Give the reported value of IC50 for this record: Cc1cc(C(F)F)n(-c2cc(Nc3nn(CC(F)F)c(-c4ccc(C#N)cc4)c3C)ncn2)n1 [Example 251]
Reply | 14

Ask | Provide measured IC50 value, entry: CCc1c(-c2ccc(C#N)cc2)nn(CC2CC2)c1Nc1cc(-n2nc(C)c(Cl)c2C)ncn1 [Example 157]
Reply | 6

Ask | Supply IC50 value. Item: Cc1nn(-c2cc(Nc3nn(C)c(-c4ccc(C#N)cc4)c3C)ncn2)c(C)c1C(C)(C)O [Example 300]
Reply | 88

Ask | Identify the reported IC50 for the following entry. COc1c(-c2ccc(F)cc2)nn(CC2CC2)c1Nc1cc(-n2nc(C)c(C(C)=O)c2C)ncn1 [Example 317]
Reply | 450
